runDescription: Pharmacokinetics in CD-1 mice after intravenous or oral Compound 003
Assay type: in vivo
conditionsUsed: female, CD-1, mouse, plasma, 200 mg/kg; mice, after Compound 003; route not distinguished
Method: Each plasma sample (200 μL) was mixed 1:4 with acetone (800 μL) and vortexed for at least 30 seconds. Following centrifugation, the supernatant was transferred into a clean tube and dried under nitrogen. A 50 μL solution of 50% methanol in 200 mM HCl was used to reconstitute the extraction residue, and 35 μL was subjected to analytical HPLC. The analytical column used was a 250×4 mm Lichrospher 100, RP-18 (5 μm) and the guard column was a 4×4 mm Lichrospher 100, RP-18 (5 μm). […]
readoutKind: Tmax

Input: Look up Tmax for this molecule: Cc1cn(C2CC(N=[N+]=[N-])C(COP(=O)(O)NC(C)C(=O)O)O2)c(=O)[nH]c1=O (stereo not shown) [ala-AZT-MP]
Output: < 5 min

This collection of values is drawn from patent US20060046972A1.
